- ASSAY_SYSTEM: T1, His-tagged CD47 recombinant protein, CD47-His (human, UniProt Q08722 19-141, limits assumed)
- T1 construct: it is not restated for CD47-His; also called human CD47-His protein; antigen CD47-His; not shown: His tag
- TEST_PROTOCOL: ELISA on coated CD47-His; Ab 0.533 nM
MEASUREMENT_NAME: OD450 nm

{"BINDER": "20H4G5 (antibody, V domains shown, Murine hybridoma antibody purified on protein G) VH: QVQLQQPGAELVRPGSSVRLSCVTSGYTFTSHWMHWVKQGPIKGLEWIGNIDPSDSETHYNQKFKDKATLTVDKSSSTAYMQLSRLTSDDSAVYYCARWRHLGIGAMDYWGQGTSVIVSS VL: DVQITQSPSYLAASPGETITINCRASKNISKFLAWYQAKPGKSNNLLIYSGSTLQSGIPSRFSGSGSGTDFTLTISRLEPEDFAMYYCQQHNEYPWTFGGGTKLEIK", "MEASUREMENT_NAME": "OD450 nm", "REPORTED_MEASUREMENT": 3.02}

Values were extracted from patent US20220017615A1.
